tested on: Hordeum vulgare; assay: Herbicidal activity, postemergence test; assay type: in vivo; conditions: post; sprayed onto seedling plants, 800 g of active material per hectare; evaluated 2 weeks after treatment
quantity: HORVW control rating (0-9)

CC(NC(=O)c1nnc(C(C)(C)C)o1)c1cccs1 (racemic); 4 (injury)

## Task Quote HORVW control rating (0-9) reported for C[C@H](NC(=O)c1nnc(-c2ccc(Cl)cc2)o1)c1ccccc1 please.
## Result 4 (injury)

## Task Quote HORVW control rating (0-9) reported for C[C@H](NC(=O)c1nnc(-c2ccccc2F)o1)c1ccccc1 please.
## Result 4 (injury)

## Task Quote HORVW control rating (0-9) reported for C[C@H](NC(=O)c1nnc(C=Cc2ccccc2)o1)c1ccccc1 please.
## Result 0 (no effect)

## Task Quote HORVW control rating (0-9) reported for C[C@H](NC(=O)c1nnc(-c2ccc(Cl)c(Cl)c2)o1)c1ccccc1 please.
## Result 0 (no effect)

## Task Quote HORVW control rating (0-9) reported for COc1ccc(-c2nnc(C(=O)N[C@@H](C)c3ccccc3)o2)cc1 please.
## Result 3 (moderate effect)

---

system: Galium aparine; assay: Herbicidal activity, postemergence test; type: in vivo; conditions: post; sprayed onto seedling plants, 800 g of active material per hectare; evaluated 2 weeks after treatment
Here the recorded GALAP control rating (0-9) is given for each entry.

Consider the reported GALAP control rating (0-9) for these compounds:
C[C@H](NC(=O)c1nnc(-c2ccc(Cl)c(Cl)c2)o1)c1ccccc1; 0 (no effect)
C[C@H](NC(=O)c1nnc(-c2ccc(Cl)cc2Cl)o1)c1ccccc1; 0 (no effect)
C[C@H](NC(=O)c1nnc(-c2ccc(C(F)(F)F)cc2)o1)c1ccccc1; 7 (good herbicidal effect)
O=C(NCc1cccs1)c1nnc(-c2ccccc2F)o1; 0 (no effect)
O=C(NCc1ccccc1)c1nnc(-c2ccc(F)cc2)o1; 0 (no effect)

## Task Quote GALAP control rating (0-9) reported for C[C@H](NC(=O)c1nnc(-c2c(Cl)cccc2Cl)o1)c1ccccc1 please.
## Result 0 (no effect)

---

Here the recorded GALAP control rating (0-9) is given for each entry.
test system: Galium aparine; experiment: Herbicidal activity, preemergence test; format: in vivo; settings: pre; sprayed onto soil, 800 g of active material per hectare; evaluated 3 weeks after treatment

Consider the reported GALAP control rating (0-9) for these compounds:
C[C@H](NC(=O)c1nnc(C=Cc2ccccc2)o1)c1ccccc1; 0 (no effect)
C[C@H](NC(=O)c1nnc(N(C)C)o1)c1ccccc1; 0 (no effect)
COc1ccc(-c2nnc(C(=O)N[C@@H](C)c3ccccc3)o2)cc1; 0 (no effect)

## Task Quote GALAP control rating (0-9) reported for C[C@H](NC(=O)c1nnc(-c2ccccc2F)o1)c1ccccc1 please.
## Result 0 (no effect)

## Task Quote GALAP control rating (0-9) reported for C[C@H](NC(=O)c1nnc(-c2cc(Cl)cc(Cl)c2)o1)c1ccccc1 please.
## Result 0 (no effect)

## Task Quote GALAP control rating (0-9) reported for C[C@H](NC(=O)c1nnc(-c2ccc(F)cc2F)o1)c1ccccc1 please.
## Result 2 (slight effect)

## Task Quote GALAP control rating (0-9) reported for C[C@H](NC(=O)c1nnc(-c2ccc(F)cc2)o1)c1ccccc1 please.
## Result 1 (trace effect)

## Task Quote GALAP control rating (0-9) reported for C[C@H](NC(=O)c1nnc(-c2c(F)cccc2F)o1)c1ccccc1 please.
## Result 0 (no effect)

---

test system: Setaria viridis; assay: Herbicidal activity, postemergence test; assay type: in vivo; details: post; sprayed onto seedling plants, 800 g of active material per hectare; evaluated 2 weeks after treatment
quantity: SETVI control rating (0-9)

Consider the reported SETVI control rating (0-9) for these molecules:
C[C@H](NC(=O)c1nnc(-c2ccc(F)cc2F)o1)c1ccccc1; 9 (complete kill)
C[C@H](NC(=O)c1nnc(-c2ccccc2)o1)c1ccccc1; 8 (approaching complete kill)
C[C@H](NC(=O)c1nnc(-c2ccc(Cl)c(Cl)c2)o1)c1ccccc1; 0 (no effect)
C[C@H](NC(=O)c1nnc(C(C)(C)C)o1)c1ccccc1; 4 (injury)
C[C@H](NC(=O)c1nnc(C=Cc2ccccc2)o1)c1ccccc1; 0 (no effect)

## Task Quote SETVI control rating (0-9) reported for O=C(NCc1cccs1)c1nnc(-c2ccc(F)cc2)o1 please.
## Result 0 (no effect)

## Task Quote SETVI control rating (0-9) reported for O=C(NCc1cccs1)c1nnc(-c2ccccc2F)o1 please.
## Result 0 (no effect)

## Task Quote SETVI control rating (0-9) reported for O=C(NCc1ccccc1)c1nnc(-c2ccc(F)cc2)o1 please.
## Result 0 (no effect)

## Task Quote SETVI control rating (0-9) reported for C[C@H](NC(=O)c1nnc(-c2ccc(F)cc2)o1)c1ccccc1 please.
## Result 9 (complete kill)

## Task Quote SETVI control rating (0-9) reported for C[C@H](NC(=O)c1nnc(-c2ccccc2Cl)o1)c1ccccc1 please.
## Result 6 (herbicidal effect)

---

test system: Lamium purpureum; test: Herbicidal activity, preemergence test; assay type: in vivo; conditions: pre; sprayed onto soil, 800 g of active material per hectare; evaluated 3 weeks after treatment
Here the recorded LAMPU control rating (0-9) is given for each entry.

Consider the reported LAMPU control rating (0-9) for these molecules:
O=C(NCc1ccccc1)c1nnc(-c2ccc(F)cc2)o1; 0 (no effect)
CC(NC(=O)c1nnc(-c2ccccc2)o1)c1cccs1 (racemic); 7 (good herbicidal effect)
C[C@H](NC(=O)c1nnc(-c2ccc(C(C)(C)C)cc2)o1)c1ccccc1; 8 (approaching complete kill)
O=C(NCc1cccs1)c1nnc(-c2ccc(F)cc2)o1; 0 (no effect)

## Task Supply LAMPU control rating (0-9) measured with Lamium purpureum for O=C(NCc1cccs1)c1nnc(-c2ccccc2F)o1 .
## Result 0 (no effect)

---

test system: Setaria viridis; assay: Herbicidal activity, postemergence test; format: in vivo; conditions: post; sprayed onto seedling plants, 800 g of active material per hectare; evaluated 2 weeks after treatment
Here the recorded SETVI control rating (0-9) is given for each entry.

C[C@H](NC(=O)c1nnc(-c2ccc(Cl)cc2)o1)c1ccccc1; 9 (complete kill)
C[C@H](NC(=O)c1nnc(-c2ccc(Cl)cc2Cl)o1)c1ccccc1; 4 (injury)
C[C@H](NC(=O)c1nnc(-c2ccc(C(F)(F)F)cc2)o1)c1ccccc1; 9 (complete kill)
C[C@H](NC(=O)c1nnc(-c2c(F)cccc2F)o1)c1ccccc1; 6 (herbicidal effect)
CC(NC(=O)c1nnc(C(C)(C)C)o1)c1cccs1 (racemic); 6 (herbicidal effect)
COc1ccc(-c2nnc(C(=O)N[C@@H](C)c3ccccc3)o2)cc1; 9 (complete kill)
C[C@H](NC(=O)c1nnc(-c2ccc(C(C)(C)C)cc2)o1)c1ccccc1; 9 (complete kill)
CC(NC(=O)c1nnc(-c2ccccc2)o1)c1cccs1 (racemic); 9 (complete kill)

Switching to the query record.
## Task Supply SETVI control rating (0-9) measured with Setaria viridis for C[C@H](NC(=O)c1nnc(-c2ccccc2F)o1)c1ccccc1 .
## Result 9 (complete kill)

---

tested on: Ambrosia artemisifolia; assay: Herbicidal activity, preemergence test; assay type: in vivo; conditions: pre; sprayed onto soil, 800 g of active material per hectare; evaluated 3 weeks after treatment
Here the recorded AMBEL control rating (0-9) is given for each entry.

Consider the reported AMBEL control rating (0-9) for these compounds:
C[C@H](NC(=O)c1nnc(-c2cc(Cl)cc(Cl)c2)o1)c1ccccc1; 0 (no effect)
O=C(NCc1cccs1)c1nnc(-c2ccccc2F)o1; 0 (no effect)
C[C@H](NC(=O)c1nnc(C=Cc2ccccc2)o1)c1ccccc1; 0 (no effect)
C[C@H](NC(=O)c1nnc(-c2ccc(Cl)cc2Cl)o1)c1ccccc1; 0 (no effect)
C[C@H](NC(=O)c1nnc(-c2ccc(C(C)(C)C)cc2)o1)c1ccccc1; 3 (moderate effect)
O=C(NCc1cccs1)c1nnc(-c2ccc(F)cc2)o1; 3 (moderate effect)
O=C(NCc1ccccc1)c1nnc(-c2ccc(F)cc2)o1; 0 (no effect)
C[C@H](NC(=O)c1nnc(-c2ccccc2F)o1)c1ccccc1; 3 (moderate effect)

## Task Supply AMBEL control rating (0-9) measured with Ambrosia artemisifolia for C[C@H](NC(=O)c1nnc(-c2ccc(C(F)(F)F)cc2)o1)c1ccccc1 .
## Result 0 (no effect)

## Task Supply AMBEL control rating (0-9) measured with Ambrosia artemisifolia for CC(NC(=O)c1nnc(C(C)(C)C)o1)c1cccs1 (racemic) .
## Result 1 (trace effect)

## Task Supply AMBEL control rating (0-9) measured with Ambrosia artemisifolia for C[C@H](NC(=O)c1nnc(-c2c(F)cccc2F)o1)c1ccccc1 .
## Result 3 (moderate effect)

---

System: Stellaria media
Test: Herbicidal activity, preemergence test
Type: in vivo
Settings: pre; sprayed onto soil, 800 g of active material per hectare; evaluated 3 weeks after treatment
Method: […] Results of herbicide evaluation are expressed on a rating scale (0-9). […] Preemergence and postemergence treatments are evaluated at 3 and 2 weeks after treatment, respectively.
Here the recorded STEME control rating (0-9) is given for each entry.

Consider the reported STEME control rating (0-9) for these molecules:
O=C(NCc1cccs1)c1nnc(-c2ccc(F)cc2)o1; 7 (good herbicidal effect)
C[C@H](NC(=O)c1nnc(C(C)(C)C)o1)c1ccccc1; 5 (definite injury)
C[C@H](NC(=O)c1nnc(-c2ccc(Cl)cc2)o1)c1ccccc1; 9 (complete kill)
O=C(NCc1cccs1)c1nnc(-c2ccccc2F)o1; 7 (good herbicidal effect)
C[C@H](NC(=O)c1nnc(-c2ccccc2Cl)o1)c1ccccc1; 5 (definite injury)

## Task Supply STEME control rating (0-9) measured with Stellaria media for C[C@H](NC(=O)c1nnc(-c2ccc(Cl)cc2Cl)o1)c1ccccc1 .
## Result 0 (no effect)

## Task Supply STEME control rating (0-9) measured with Stellaria media for C[C@H](NC(=O)c1nnc(-c2ccc(C(F)(F)F)cc2)o1)c1ccccc1 .
## Result 8 (approaching complete kill)

## Task Supply STEME control rating (0-9) measured with Stellaria media for C[C@H](NC(=O)c1nnc(-c2ccc(F)cc2F)o1)c1ccccc1 .
## Result 9 (complete kill)

## Task Supply STEME control rating (0-9) measured with Stellaria media for C[C@H](NC(=O)c1nnc(C=Cc2ccccc2)o1)c1ccccc1 .
## Result 0 (no effect)

## Task Supply STEME control rating (0-9) measured with Stellaria media for C[C@H](NC(=O)c1nnc(-c2c(F)cccc2F)o1)c1ccccc1 .
## Result 8 (approaching complete kill)

## Task Supply STEME control rating (0-9) measured with Stellaria media for C[C@H](NC(=O)c1nnc(-c2ccc(F)cc2)o1)c1ccccc1 .
## Result 9 (complete kill)
